assay: Toxicokinetics in rat toxicity study (IV infusion); assay type: in vivo; conditions: plasma; rat, 1 hour IV infusion, 5 mg/kg/dose, Female, Day 1 (first dose)
READOUT_KIND: Cmax (ng/mL)
Numbers only, in ng/mL.

Looking for the measured Cmax of Cc1cnc(CNC(=O)c2c(=O)c3ccc(N4CCCN(C)CC4)nc3n3c2sc2ccccc23)cn1 , can you help?
2520

----------
tested on: various cancer cell lines; test: Cell viability by Alamar Blue assay; assay type: cell-based; settings: CD-1096Sk, Normal
READOUT_KIND: EC50
Answer by giving the amount and then stating its unit.

Request body: readout EC50, system various cancer cell lines, query Cc1cnc(CNC(=O)c2c(=O)c3ccc(N4CCCN(C)CC4)nc3n3c2sc2ccccc23)cn1 . Return the value.
5.26 µM
